Tested on: CCRIS mutagenicity, Ames/micronucleus/aberration tests
PROCEDURE_SUMMARY: CCRIS mutagenicity studies
CONDITION_PARAMETERS: End Point: IN VITRO CHROMOSOMAL ABERRATIONS; Test System: CHINESE HAMSTER OVARY CELLS; Metabolic Activation: NONE
Calls of active or inactive are those of the source. No rule for the calls is given here.
A correct response names exactly one class from y for active, n for inactive

So what was the verdict on `Cc1ccc(Cl)cc1N` in this test?
n

So what was the verdict on `C/C=C/C=O` in this test?
y

So what was the verdict on `ClC(Cl)=C(Cl)C(Cl)=C(Cl)Cl` in this test?
n

So what was the verdict on CN1CCC(CN2c3ccccc3Sc3ccccc32)C1 (centres undefined) in this test?
n

So what was the verdict on `Oc1ccc(O)cc1` in this test?
n

So what was the verdict on `CC(C)[N+](=O)[O-]` in this test?
n

So what was the verdict on `O=C(O)COc1cc(Cl)c(Cl)cc1Cl` in this test?
n

So what was the verdict on `Nc1nc(N)nc(N)n1` in this test?
n

So what was the verdict on `Clc1cc2c(cc1Cl)Oc1cc(Cl)c(Cl)cc1O2` in this test?
n

So what was the verdict on `c1ccc(NNc2ccccc2)cc1` in this test?
y

So what was the verdict on `CC(=O)OC/C=C(\C)CCC=C(C)C` in this test?
n

So what was the verdict on `Cc1cc(Cl)ccc1N` in this test?
n

So what was the verdict on `CCCCOCCOCCOCc1cc2c(cc1CCC)OCO2` in this test?
n

So what was the verdict on `NS(=O)(=O)c1cc2c(cc1Cl)NCNS2(=O)=O` in this test?
n

So what was the verdict on CCCCCCCCS(=O)C(C)Cc1ccc2c(c1)OCO2 (centres undefined) in this test?
n

So what was the verdict on `ClC(Cl)C(Cl)(Cl)Cl` in this test?
n

So what was the verdict on OC1C2(Cl)C3(Cl)C4(Cl)C(Cl)(Cl)C5(Cl)C3(Cl)C1(Cl)C5(Cl)C24Cl (centres undefined) in this test?
n

So what was the verdict on `ClC(Cl)=C(c1ccc(Cl)cc1)c1ccc(Cl)cc1` in this test?
n

So what was the verdict on `ClC(Cl)C(Cl)Cl` in this test?
n
